system: DU-145; experiment: Cytotoxicity against human DU145 cells; format: functional
property: GI50 (µM)
Number in µM, nothing else.

Per the reported DU-145 data, NCCCn1c2c(c3ccc([N+](=O)[O-])cc3c1=O)C(=O)c1ccccc1-2 has GI50 of 0.014

// returns GI50 for CCc1ccc2c(c1)C(=O)c1c-2n(CCCN)c(=O)c2cc(OC)c(OC)cc12 with DU-145; value = 1.62

// GI50 (DU-145) for COc1cc2c3c(n(CCCN=[N+]=[N-])c(=O)c2cc1OC)-c1ccc(NC(C)=O)cc1C3=O = 50.1

Result for O=C1c2cc(Cl)ccc2-c2c1c1ccc([N+](=O)[O-])cc1c(=O)n2CCCBr , tested on DU-145, GI50: 3.98

---

tested on: DU-145; test: Cytotoxicity against human DU145 cells; type: functional
property: log10 of GI50 (log10 of the value in µM)
// units: µM (pre-log); metric: GI50; scale: log10

COc1cc2c3c(n(CCCN=[N+]=[N-])c(=O)c2cc1OC)-c1ccc(F)cc1C3=O
0.62
CCOc1ccc2c(c1)C(=O)c1c-2n(CCCBr)c(=O)c2cc([N+](=O)[O-])ccc12
0.63
N#Cc1ccc2c(c1)C(=O)c1c-2n(CCCCl)c(=O)c2cc([N+](=O)[O-])ccc12
0.44
COc1cc2c3c(n(CCCN=[N+]=[N-])c(=O)c2cc1OC)-c1ccccc1C3=O
1.45

For COc1ccc2c(c1)C(=O)c1c-2n(CCCN=[N+]=[N-])c(=O)c2cc(OC)c(OC)cc12 the compound record lists log10 of GI50 as 1.42

// sample Cc1ccc(S(=O)(=O)Oc2ccc3c(c2)C(=O)c2c-3n(CCCBr)c(=O)c3cc([N+](=O)[O-])ccc23)cc1 , its log10 of GI50 was 1.77

COc1cc2c3c(n(C)c(=O)c2cc1OC)-c1cc2c(cc1C3=O)OCO2 has a reported log10 of GI50 of 1.57

---

system: UACC-62; assay: Cytotoxicity against human UACC62 cells; assay type: functional
property: GI50 (µM)
The reply should be a number in µM, with the unit left off.

COc1cc2c3c(n(CCCCl)c(=O)c2cc1OC)-c1ccc(C#N)cc1C3=O
6.76
COc1cc2c3c(n(CCCN)c(=O)c2cc1OC)-c1ccc([N+](=O)[O-])cc1C3=O
11.5

# molecule COc1cc2c3c(n(CCCN=[N+]=[N-])c(=O)c2cc1OC)-c1ccc(NC(C)=O)cc1C3=O ; its GI50 = 50.1

For COC(=O)OCc1ccc2c(c1)C(=O)c1c-2n(CCCBr)c(=O)c2cc([N+](=O)[O-])ccc12 the molecule record lists GI50 as 33.9

// CCc1ccc2c(c1)C(=O)c1c-2n(CCCN)c(=O)c2cc([N+](=O)[O-])ccc12 : GI50 value = 1.48

So, COc1cc2c3c(n(CCCCl)c(=O)c2cc1OC)-c1ccccc1C3=O ? Its GI50 was 12.3

Short answer for COc1cc2c3c(n(CCCN=[N+]=[N-])c(=O)c2cc1OC)-c1ccccc1C3=O : GI50 was 2.63

Input CCc1ccc2c(c1)C(=O)c1c-2n(CCCN)c(=O)c2cc(OC)c(OC)cc12 . Output GI50: 1.82

---

Reported GI50 values for a set of molecules
tested on: DU-145; test: Cytotoxicity against human DU145 cells; assay type: functional
Write the value in nM as a bare number.

Item: CCOc1ccc2c(c1)C(=O)c1c-2n(CCCN)c(=O)c2cc([N+](=O)[O-])ccc12 | GI50: 11

Note to self: GI50 recorded for COc1cc2c3c(n(CCCBr)c(=O)c2cc1OC)-c1ccc(F)cc1C3=O was 4360

Entry COC(=O)c1ccc2c(c1)C(=O)c1c-2n(CCCN)c(=O)c2cc(OC)c(OC)cc12 ; GI50 = 17800

get_value(item= COC(=O)c1ccc2c(c1)C(=O)c1c-2n(CCCN=[N+]=[N-])c(=O)c2cc([N+](=O)[O-])ccc12 , readout=GI50) returns 70800

---

Items are presented alongside their recorded GI50.
test system: UACC-62; assay: Cytotoxicity against human UACC62 cells; assay type: functional
Just the number in nM, nothing appended.

Example cases with answers are listed next.
COc1cc2c3c(n(CCCN=[N+]=[N-])c(=O)c2cc1OC)-c1ccc(N)cc1C3=O
26
COC(=O)c1ccc2c(c1)C(=O)c1c-2n(CCCN)c(=O)c2cc(OC)c(OC)cc12
17400
CCOc1ccc2c(c1)C(=O)c1c-2n(CCCN)c(=O)c2cc([N+](=O)[O-])ccc12
55

For reference, reported GI50 for COc1ccc2c(c1)C(=O)c1c-2n(CCCN=[N+]=[N-])c(=O)c2cc(OC)c(OC)cc12 stands at 20900

# GI50 of CSc1ccc2c(c1)C(=O)c1c-2n(CCCN=[N+]=[N-])c(=O)c2cc([N+](=O)[O-])ccc12 = 708

Value of GI50 reported for the molecule O=C1c2cc(Cl)ccc2-c2c1c1ccc([N+](=O)[O-])cc1c(=O)n2CCCBr is 3470

---

system: DU-145; assay: Cytotoxicity against human DU145 cells; format: functional
Threshold check on GI50: strictly below 2 µM is Satisfied; on or above 2 µM is Not satisfied.

Would you please look over these solved cases?
COc1cc2c3c(n(CCCN)c(=O)c2cc1OC)-c1ccc(C#N)cc1C3=O
Not satisfied
[N-]=[N+]=NCCCn1c2c(c3ccc([N+](=O)[O-])cc3c1=O)C(=O)c1cc(Br)ccc1-2
Not satisfied
COc1cc2c3c(n(CCCN)c(=O)c2cc1OC)-c1ccccc1C3=O
Not satisfied
COc1cc2c3c(n(CCCN)c(=O)c2cc1OC)-c1ccc(N(C)C)cc1C3=O
Not satisfied
O=C1c2cc(F)ccc2-c2c1c1ccc([N+](=O)[O-])cc1c(=O)n2CCCBr
Not satisfied
COc1cc2c3c(n(CCCN)c(=O)c2cc1OC)-c1ccc(N)cc1C3=O
Not satisfied
NCCCn1c2c(c3ccc([N+](=O)[O-])cc3c1=O)C(=O)c1cc(F)ccc1-2
Satisfied
CSc1ccc2c(c1)C(=O)c1c-2n(CCCN)c(=O)c2cc([N+](=O)[O-])ccc12
Satisfied
COc1cc2c3c(n(CCCN)c(=O)c2cc1OC)-c1ccc([N+](=O)[O-])cc1C3=O
Not satisfied
COC(=O)c1ccc2c(c1)C(=O)c1c-2n(CCCCl)c(=O)c2cc([N+](=O)[O-])ccc12
Not satisfied

Lab note: next compound to report on.
Query :: Confirm or reject: GI50 of CCc1ccc2c(c1)C(=O)c1c-2n(CCCN=[N+]=[N-])c(=O)c2cc([N+](=O)[O-])ccc12 lies strictly below 2 µM
Result :: Not satisfied

---

test system: UACC-62; assay: Cytotoxicity against human UACC62 cells; format: functional
Values of GI50 strictly less than 3 µM map to criterion met, and values of at least 3 µM map to criterion not met.

Answered cases to consult:
COc1cc2c3c(n(CCCBr)c(=O)c2cc1OC)-c1ccc(NC(C)=O)cc1C3=O
criterion met
COc1cc2c3c(n(CCCN)c(=O)c2cc1OC)-c1ccc(N(C)C)cc1C3=O
criterion not met
NCCCn1c2c(c3ccc([N+](=O)[O-])cc3c1=O)C(=O)c1cc(-c3ccccc3)ccc1-2
criterion met
COC(=O)c1ccc2c(c1)C(=O)c1c-2n(CCCN=[N+]=[N-])c(=O)c2cc([N+](=O)[O-])ccc12
criterion not met
COC(=O)c1ccc2c(c1)C(=O)c1c-2n(CCCCl)c(=O)c2cc(OC)c(OC)cc12
criterion not met
N#Cc1ccc2c(c1)C(=O)c1c-2n(CCCCl)c(=O)c2cc([N+](=O)[O-])ccc12
criterion met
Cc1ccc2c(c1)C(=O)c1c-2n(CCCBr)c(=O)c2cc([N+](=O)[O-])ccc12
criterion not met
CCc1ccc2c(c1)C(=O)c1c-2n(CCCBr)c(=O)c2cc([N+](=O)[O-])ccc12
criterion not met
COc1cc2c3c(n(CCCN)c(=O)c2cc1OC)-c1ccc(F)cc1C3=O
criterion not met
NCCCn1c2c(c3ccc([N+](=O)[O-])cc3c1=O)C(=O)c1cc(Cl)ccc1-2
criterion met

Query :: Check if GI50 falls below 3 µM for CS(=O)(=O)c1ccc2c(c1)C(=O)c1c-2n(CCCBr)c(=O)c2cc([N+](=O)[O-])ccc12 .
Result :: criterion not met

Query :: For this molecule, is GI50 lower than 3 µM? COC(=O)c1ccc2c(c1)C(=O)c1c-2n(CCCN=[N+]=[N-])c(=O)c2cc(OC)c(OC)cc12
Result :: criterion not met

---

tested on: UACC-62; test: Cytotoxicity against human UACC62 cells; format: functional
property: GI50

CCc1ccc2c(c1)C(=O)c1c-2n(CCCN=[N+]=[N-])c(=O)c2cc([N+](=O)[O-])ccc12
> 50100 nM
COc1cc2c3c(n(CCCN=[N+]=[N-])c(=O)c2cc1OC)-c1ccc(N(C)C)cc1C3=O
> 100000 nM
CSc1ccc2c(c1)C(=O)c1c-2n(CCCN)c(=O)c2cc([N+](=O)[O-])ccc12
< 10 nM
COc1ccc2c(c1)C(=O)c1c-2n(CCCCl)c(=O)c2cc([N+](=O)[O-])ccc12
< 10 nM
COc1ccc2c(c1)C(=O)c1c-2n(CCCN)c(=O)c2cc([N+](=O)[O-])ccc12
< 10 nM

Turning now to a further compound:
Input NCCCn1c2c(c3ccc([N+](=O)[O-])cc3c1=O)C(=O)c1cc(F)ccc1-2 . Output GI50: < 10 nM
